System: PPARg:RXRa 30nM:10nM, anti-RXR (NR concentration 30 nM, RXRa partner concentration 10 nM)
Assay: PBM binding z-score (relative to random genomic background probes); higher = stronger binding; sequences stand for … in GC…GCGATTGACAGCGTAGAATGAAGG
Classification field. Basis: PBM binding z-score. Definitions: lower level (below 0.4), middle level (0.4 to below 3), upper level (3 or more)

In [3]: df
Out[3]:
                     residue_sequence                               system_name   class_label
0  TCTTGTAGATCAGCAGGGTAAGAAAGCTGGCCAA  PPARg:RXRa 30nM:10nM, anti-RXR (NR concentration 30 nM, RXRa partner concentration 10 nM)  middle level
1  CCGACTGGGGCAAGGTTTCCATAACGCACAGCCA  PPARg:RXRa 30nM:10nM, anti-RXR (NR concentration 30 nM, RXRa partner concentration 10 nM)  middle level
2  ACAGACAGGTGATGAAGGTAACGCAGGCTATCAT  PPARg:RXRa 30nM:10nM, anti-RXR (NR concentration 30 nM, RXRa partner concentration 10 nM)   lower level

stdin: Hi, small favor: classify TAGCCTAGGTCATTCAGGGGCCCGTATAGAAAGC by its PBM binding z-score when you get a moment.
stdout: lower level

stdin: Hi, small favor: classify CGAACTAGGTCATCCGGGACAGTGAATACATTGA by its PBM binding z-score when you get a moment.
stdout: upper level

stdin: Hi, small favor: classify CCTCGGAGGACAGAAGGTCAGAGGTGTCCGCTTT by its PBM binding z-score when you get a moment.
stdout: lower level

stdin: Hi, small favor: classify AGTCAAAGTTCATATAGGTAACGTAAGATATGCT by its PBM binding z-score when you get a moment.
stdout: upper level

stdin: Hi, small favor: classify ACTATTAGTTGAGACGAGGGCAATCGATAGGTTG by its PBM binding z-score when you get a moment.
stdout: middle level

stdin: Hi, small favor: classify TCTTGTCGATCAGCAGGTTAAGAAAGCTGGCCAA by its PBM binding z-score when you get a moment.
stdout: middle level

stdin: Hi, small favor: classify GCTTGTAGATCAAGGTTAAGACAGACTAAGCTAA by its PBM binding z-score when you get a moment.
stdout: middle level

stdin: Hi, small favor: classify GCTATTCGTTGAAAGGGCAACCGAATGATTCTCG by its PBM binding z-score when you get a moment.
stdout: middle level

====

System: LXRb homodimer (NR concentration 270 nM)
Test: PBM binding z-score (relative to random genomic background probes); higher = stronger binding; sequences stand for … in GC…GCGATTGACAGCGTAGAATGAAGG
Experimental Endpoint: PBM binding z-score
One number for each entry.

// solved cases for PBM binding z-score follow
                     residue_sequence  experimental_endpoint  test_result
0  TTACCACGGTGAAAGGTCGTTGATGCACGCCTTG    PBM binding z-score       -0.318
1  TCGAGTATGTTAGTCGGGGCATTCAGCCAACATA    PBM binding z-score       -0.713
2  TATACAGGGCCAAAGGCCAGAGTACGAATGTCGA    PBM binding z-score        0.431
3  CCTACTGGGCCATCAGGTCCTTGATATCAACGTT    PBM binding z-score       -0.521
4  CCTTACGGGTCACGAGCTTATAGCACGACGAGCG    PBM binding z-score     -0.00639
5  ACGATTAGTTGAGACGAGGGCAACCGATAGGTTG    PBM binding z-score       -0.463

Consider the following items and state reported PBM binding z-score for each.
1. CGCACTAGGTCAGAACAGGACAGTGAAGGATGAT
2. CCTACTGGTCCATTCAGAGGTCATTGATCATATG
3. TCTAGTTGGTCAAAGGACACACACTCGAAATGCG
4. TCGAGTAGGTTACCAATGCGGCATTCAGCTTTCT
5. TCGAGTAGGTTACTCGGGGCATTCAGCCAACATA
6. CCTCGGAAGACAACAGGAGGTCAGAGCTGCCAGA
7. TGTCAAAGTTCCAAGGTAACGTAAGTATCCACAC
8. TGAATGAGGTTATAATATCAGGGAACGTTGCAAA

stdout:
1. -0.258
2. 1.12
3. 0.181
4. -0.704
5. -0.722
6. -0.201
7. 0.0682
8. 0.0343

Consider the following items and state reported PBM binding z-score for each.
1. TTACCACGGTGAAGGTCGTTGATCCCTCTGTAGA
2. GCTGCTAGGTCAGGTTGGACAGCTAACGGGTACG
3. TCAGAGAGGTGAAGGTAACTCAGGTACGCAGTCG
4. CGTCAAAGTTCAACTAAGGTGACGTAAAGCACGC
5. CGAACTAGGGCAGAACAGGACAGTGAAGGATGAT
6. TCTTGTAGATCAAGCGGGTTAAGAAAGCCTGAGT
7. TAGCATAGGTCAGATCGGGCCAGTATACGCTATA

stdout:
1: -0.41; 2: -0.346; 3: -0.432; 4: 2.05; 5: -0.666; 6: -0.187; 7: -0.138

Consider the following items and state reported PBM binding z-score for each.
1. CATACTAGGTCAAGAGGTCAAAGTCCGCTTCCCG
2. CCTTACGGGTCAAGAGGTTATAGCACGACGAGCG
3. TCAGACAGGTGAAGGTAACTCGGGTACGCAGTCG
4. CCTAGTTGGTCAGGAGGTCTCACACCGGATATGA
5. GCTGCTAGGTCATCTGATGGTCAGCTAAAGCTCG

stdout:
1: 2.49; 2: -0.435; 3: -0.167; 4: -0.246; 5: 0.0879

====

System: RARb homodimer (NR concentration 270 nM)
Test: PBM binding z-score (relative to random genomic background probes); higher = stronger binding; sequences stand for … in GC…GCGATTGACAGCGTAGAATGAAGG
Experimental Endpoint: PBM binding z-score
One number for each entry.

// solved cases for PBM binding z-score follow
>>> print(df.to_string())
                     residue_sequence                               system_name  test_result
0  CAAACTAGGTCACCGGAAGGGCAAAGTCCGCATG  RARb homodimer (NR concentration 270 nM)         4.57
1  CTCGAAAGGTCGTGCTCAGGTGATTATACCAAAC  RARb homodimer (NR concentration 270 nM)         2.98
2  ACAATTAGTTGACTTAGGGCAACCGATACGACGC  RARb homodimer (NR concentration 270 nM)         1.03
3  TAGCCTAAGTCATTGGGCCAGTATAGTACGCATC  RARb homodimer (NR concentration 270 nM)       -0.447
4  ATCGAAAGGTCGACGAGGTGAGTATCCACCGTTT  RARb homodimer (NR concentration 270 nM)          2.9
5  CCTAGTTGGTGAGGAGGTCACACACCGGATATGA  RARb homodimer (NR concentration 270 nM)         3.83
6  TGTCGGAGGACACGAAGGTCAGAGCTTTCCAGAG  RARb homodimer (NR concentration 270 nM)          3.4
7  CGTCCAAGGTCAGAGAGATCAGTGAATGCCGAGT  RARb homodimer (NR concentration 270 nM)         3.33

Consider the following items and state reported PBM binding z-score for each.
1. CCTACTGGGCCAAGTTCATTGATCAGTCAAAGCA
2. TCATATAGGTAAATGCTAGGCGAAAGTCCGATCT
3. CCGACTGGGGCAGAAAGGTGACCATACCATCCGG
4. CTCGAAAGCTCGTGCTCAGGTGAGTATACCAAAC
5. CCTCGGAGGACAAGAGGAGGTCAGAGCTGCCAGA
6. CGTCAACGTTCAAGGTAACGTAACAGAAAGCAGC

stdout:
1. 1.71
2. -0.15
3. 1.8
4. -0.48
5. 2.96
6. 0.184

Consider the following items and state reported PBM binding z-score for each.
1. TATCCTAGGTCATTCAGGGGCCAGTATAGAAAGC
2. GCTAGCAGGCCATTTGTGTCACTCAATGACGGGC

stdout:
3.68
-0.0499

Consider the following items and state reported PBM binding z-score for each.
1. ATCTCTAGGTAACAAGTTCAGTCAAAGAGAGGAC
2. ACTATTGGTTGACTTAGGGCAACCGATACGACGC
3. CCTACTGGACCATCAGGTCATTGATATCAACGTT
4. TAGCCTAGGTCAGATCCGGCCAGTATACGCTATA
5. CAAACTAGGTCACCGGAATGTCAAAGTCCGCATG
6. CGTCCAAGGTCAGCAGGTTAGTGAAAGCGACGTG
7. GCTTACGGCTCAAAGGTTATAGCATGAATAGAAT
8. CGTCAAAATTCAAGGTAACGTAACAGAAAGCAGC

stdout:
1.92
0.788
2.7
2.26
4.04
4
1.05
0.985

Consider the following items and state reported PBM binding z-score for each.
1. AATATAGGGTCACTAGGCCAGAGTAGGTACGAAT
2. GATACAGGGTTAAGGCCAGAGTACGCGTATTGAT

stdout:
3.3
1.34
